Each record here notes measured peptide exchange yield.
target_under_test: T1, HLA-B*44:05 (human)
T1 construct: also called peptide-receptive MHC class I molecule
test_name: UV peptide exchange, anti-b2m ELISA
measured_metric: peptide exchange yield

[[record]]
binder = "DEINHQSL"
data_value = "20 to 50%"

[[record]]
binder = "SEAKEIKSQL"
data_value = "50 to 75%"

[[record]]
binder = "LEALLSDLF"
data_value = "50 to 75%"

[[record]]
binder = "SEVEYINKY"
data_value = "50 to 75%"

